A collection of compounds and their measured pIC50 (FF)
# TARGET ENTITY: RORγ (UniProt P51449)
# RUN DESCRIPTION: RORγ Gal4 Reporter Gene Assay in 293T cells (firefly and renilla luciferase)
# Assay type: cell-based, human
# CONDITIONS: second value of the cell; Gal4 reporter gene assay in 293T cells, firefly luciferase
// keep it numeric: no unit symbol after the value

Cc1c(C(=O)NCC2(C(=O)O)CC2)cc(-c2cc(C(C)(C)C)c3c(c2)C2(CCO3)CC2)n1CC1CCCCC1 : 6.7
Cc1c(C(=O)NCCc2noc(=O)[nH]2)cc(-c2cc(C(C)(C)C)cc(C3(C)CC3)c2)n1CC1CCCCC1 : 7.9
Cc1c(C(=O)N[C@H]2C[C@H](C(=O)O)C2)cc(-c2cc(OC(F)(F)F)cc(C(=O)NC(C)(C)C)c2)n1CC1CCCCC1 : 6.8

Field pIC50 (FF) (RORγ (UniProt P51449)), entry Cc1c(C(=O)NC2CCOCC2)cc(-c2ccc(S(=O)(=O)NC(C)(C)C)c(C(F)(F)F)c2)n1CC1CC(C)C1 (stereo not shown) : 7.3

Summary line: `Cc1c(C(=O)NC2COC2)cc(-c2cn(S(=O)(=O)N3CCCCC3)c3ccccc23)n1CC1CCCCC1` , RORγ (UniProt P51449), reported pIC50 (FF) = 7.5

Form: item `Cc1c(C(=O)NC2CCOCC2)cc(-c2ccc(CN3CCOCC3(C)C)c(C(F)(F)F)c2)n1CC1CCCCC1` ; test system RORγ (UniProt P51449); pIC50 (FF): 6.8

Summary line: `Cc1c(C(=O)NC2COC2)cc(-c2cc(C(F)(F)F)c(=O)n(CC(C)(C)C)c2)n1CC1CCCCC1` , RORγ (UniProt P51449), reported pIC50 (FF) = 6.3

###

The entries below come with measured IC50 values attached.
# TARGET ENTITY: RORγ ligand binding domain (LBD) (Homo sapiens, UniProt P51449)
# Construct: made in house; host or cells: E. coli BL-21 (BL3), vector pDEST15
# Sequence (P51449 269-508 limits assumed): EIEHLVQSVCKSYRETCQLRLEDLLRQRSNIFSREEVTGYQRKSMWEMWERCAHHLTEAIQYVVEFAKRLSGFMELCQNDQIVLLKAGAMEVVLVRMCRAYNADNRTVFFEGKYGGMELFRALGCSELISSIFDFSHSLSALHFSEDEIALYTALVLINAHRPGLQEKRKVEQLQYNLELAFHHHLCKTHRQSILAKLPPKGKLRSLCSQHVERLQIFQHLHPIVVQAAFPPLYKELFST
# RUN DESCRIPTION: TR-FRET Activity Assay (ligand sensing, RORγ-LBD / coactivator peptide interaction, LANCE)
# Format: biochemical
# CONDITIONS: first value of the cell FRET/FF/REN; TR-FRET activity assay; read-out: pIC50 (FRET) (converted)
Record the value in nM, omitting the unit from your answer.

Please review the following examples before continuing.
CC(C)(C)NS(=O)(=O)c1ccc(-c2cc(C(=O)NC3CCOCC3)c(F)n2CC2CCCCC2)cc1C(C)(C)C : 398
Cc1c(C(=O)NC2CCOCC2)cc(-c2ccc(-c3cnc(NC(C)C)nc3)c(C(C)(C)C)c2)n1CC1CCCCC1 : 3980
Cc1c(C(=O)NC2C[S+]([O-])C2)cc(-c2cc(C(C)(C)C)cc(C(C)(C)C)c2)n1CC1CCCCC1 (stereo not shown) : 251
CC(C)(C)NS(=O)(=O)c1ccc(-c2cc(C(=O)NC3CCOCC3)c(F)n2CC2CCCCC2)cc1C(F)(F)F : 251
CC(C)(C)NS(=O)(=O)c1ccc(-c2cc(C(=O)N[C@H]3C[C@H](C(=O)O)C3)c(F)n2CC2CCCCC2)cc1C(F)(F)F : 398

The reported IC50 of the compound `Cc1c(C(=O)NCCC(C)(C)C(=O)O)cc(-c2ccc(S(=O)(=O)NC(C)(C)C)c(C(F)(F)F)c2)n1CC1CCCCC1` was 631

So for `Cc1c(C(=O)NC2CCOCC2)cc(-c2cc(C(C)(C)O)c3c(c2)C2(CCO3)CC2)n1CC1CCCCC1` , the logged IC50 turned out to be 1260

Lab note: measured IC50 of `Cc1c(C(=O)NCC(C)(C)O)cc(-c2ccc(S(=O)(=O)NC(C)(C)C)c3ccccc23)n1CC1CCC(F)(F)CC1` was 2510

So, `Cc1c(C(=O)N[C@H]2C[C@H](C(=O)O)C2)cc(-c2ccc(-c3ccnn3C(C)C)c(C(C)(C)C)c2)n1CC1CCCCC1` ? Its IC50 was 316

Sample `Cc1c(C(=O)NCC(C)(C)C(=O)NCCS(C)(=O)=O)cc(-c2cc(C(C)(C)C)c3c(c2)C2(CCO3)CC2)n1CC1CCCCC1` ; IC50 observed: 398
